# ASSAY_PROCEDURE: soluble on expression in E. coli; label from the status in PepcDB or PDB records
QUANTITY_KIND: soluble on expression in E. coli

MQREQTKVFKRVAGIKDKAAIKTLISAAYRQIFERDIAPYIAQNEFSGWESKLGNGEITVKEFIEGLGYSNLYLKEFYTPYPNTKVIELGTKHFLGRAPIDQAEIRKYNQILATQGIRAFINALVNSQEYNEVFGEDTVPYRRFPTLPALEHHHHHH = soluble
MGSDKIHHHHHHMLKHADIWAAIDALARDHGLTASALARKAGLDPTTFNKSKRVTREGKPRWPSTESVAKVLEATGATMTAFVGYIEDTAQARQTANTIPLIGFAQAGDCGYFDDAGYPVGGSWDEIPFPEIGDPHAYALEVSGDSMEPLYRDGDVVIVSPAAGVRRGDRVVVRTTEGEVMVKQLVRQTAKRIELASINPAHPGRSLATEEVAWIARILWSSQ = not soluble
MSIPEELWRRFQEGDPRALARALTLVESGHPAGRELLKRVRGKGRAKVVGVTGSPGAGKSTLTDRLILEARKRGERVAVLAVDPSSPFSGGAILGDRIRMMRHHQDPGVYIRSMASRGALGGLAGATVAALSLLEAFGFDRIFVETVGVGQSEVDIARVADTTLLVLTPAAGDAVQAFKAGVMEIADVFAVNKFDLPGGERIVQELKSALELSPPRPGGWRPPIHPTVAASGEGVEALFESLEAHHRHLVEHGLLEAHRLERARFEVESVIQEWGRQRTQGAGALVARVARGELTPEEAALALLGPGPEAEEGAL = soluble
MSLDGTVLLIDYFEYEREKTKIIFDNIGEYDFIEVENLKKFYSIFKDLDSITLIIMDIAFPVEKEGLEVLSAIRNNSRTANTPVIIATKSDNPGYRHAALKFKVSDYILKPYPTKRLENSVRSVLKICQRFRYEFDSAHVISMSIEDYISKEFKVASRAGQSLSVILMAPVGLEKEPSEQSTQISSELQDQIQNLAIEKVKLSLRSTDTAILNANRDILVILPFTNAAGAQKVLQKIQDNVREGLKSLNINYDDYYYAVSVTFPNDGKTFQSLMEKAVKKVEDKIMLEKITSIGVNILDNARNSYKKFNKEGHHHHHH = soluble

Ask: Look up soluble on expression in E. coli: AKLLPKLQKQNLSDSAQQIAQERGLGNSSQRKVYLPIIRAYRVGPELIDWTDGKNLRELGIYRQTGCYIERIRRNGILAHPDGDAILQEGDEIALVGFPDSHARLDPSFRNGKEVFDRNLLDLRIVEEEIVVKSDAIAGKRLSDLNLSEFGCFLNRVVRAQIEMPMDLDIVLAKGDVLQVSGEKSRVHGLAEKIGFISIHSQMAD
Result: not soluble

Ask: Look up soluble on expression in E. coli: MGFDFLGFTVRQFPVGKYHSGKSSSGKLLGYKTLITPSKAKLKIHAQKIGKLIDEHKAVPQSDLIAHLNPVIRGWTNYYSCVVSKRIFNQADTTLFSQLKAWAEHRHPNKSSRWSCQKYWQTVGSDNWVFKPHNQKIRLLKHRETRLEHHHHHH
Result: soluble

----------
# ASSAY_PROCEDURE: soluble on expression in E. coli; label from the status in PepcDB or PDB records
QUANTITY_KIND: soluble on expression in E. coli

MGSDKIHHHHHHMRNASIEQYDATPRAVVAMGTDYPDGYLLPRHRHRRAQLLYGASGVMQVRTGDAGWVVPPQRAVWIPPGVEHEVRMLGVSTRSLYIEPGSAMAMPAHCQVLAVSPLLRQLLLAAVDMPLEYDTEGRDGALATLLLHELAAAETLPLHVPLPPEPRWLALCEAFLVEPDIRASAERWAGLLHTSLRSFNRTFRRYTGLSFGAWKQRACVVQALARLAGGETVTAIALDCGYQSPAAFSTMFRRVLGQPPSAFQAGALRSPGGP = not soluble
MGSDKIHHHHHHMEMDERFKDKWYLVKYKFFSNPFYKDFDVYDSSNNVVFTARMNALNPVTRDIVVYEVNKARSEILLISGKHFIRWPNNFEMTSIATREKIGTFRNGPAGWAVLDEYGRQVAILKRIEDPSGAIMYQIRMDSTSVCEYRFINIITPVIMIDFPDESIFSKKMGIGLALVLGYQSVAFNYTYQGW = not soluble
